All figures here come from patent US6706880B2.

- Study target: serotonin transporter (Rattus norvegicus, UniProt P31652)
- Construct: from tissue
- Sequence (P31652 whole entry): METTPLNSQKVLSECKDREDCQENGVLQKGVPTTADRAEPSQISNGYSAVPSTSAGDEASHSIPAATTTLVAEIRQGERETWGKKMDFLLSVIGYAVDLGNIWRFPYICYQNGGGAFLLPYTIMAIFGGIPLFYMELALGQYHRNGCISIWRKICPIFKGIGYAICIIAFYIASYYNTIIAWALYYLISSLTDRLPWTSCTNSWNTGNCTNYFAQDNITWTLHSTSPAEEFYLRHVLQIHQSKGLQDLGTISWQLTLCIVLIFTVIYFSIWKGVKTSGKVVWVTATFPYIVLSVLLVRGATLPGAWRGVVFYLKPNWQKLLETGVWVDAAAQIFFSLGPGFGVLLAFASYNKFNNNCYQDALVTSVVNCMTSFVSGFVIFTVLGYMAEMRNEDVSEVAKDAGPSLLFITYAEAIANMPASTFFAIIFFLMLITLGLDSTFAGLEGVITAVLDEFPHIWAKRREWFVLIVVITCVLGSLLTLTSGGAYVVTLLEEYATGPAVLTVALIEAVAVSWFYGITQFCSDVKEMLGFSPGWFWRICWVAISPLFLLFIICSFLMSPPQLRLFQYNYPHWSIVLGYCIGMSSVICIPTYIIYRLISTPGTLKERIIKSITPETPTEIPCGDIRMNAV
- Assay procedure: Inhibition of [3H]paroxetine radioligand binding at the serotonin transporter
- Experimental conditions: 5-HT IC50 for inhibition of radioligand binding, 5-HT=[3H] paroxetine
Entries and their IC50 values follow.
Record the value in nM, omitting the unit from your answer.

Could you share what IC50 was measured for COC(=O)CC1C(c2ccc(C)cc2)CC2CCC1N2C (stereo not drawn) , tested on serotonin transporter (Rattus norvegicus, UniProt P31652)?
618

Return IC50 measured with serotonin transporter (Rattus norvegicus, UniProt P31652) given this compound: CN1C2CCC1C(C(=O)N1CCCCOCC1)C(c1ccc(Cl)cc1)C2 (stereo not drawn)
88800

More entries:
Which IC50 is reported with serotonin transporter (Rattus norvegicus, UniProt P31652) for this entry: CN1C2CCC1C(c1nc(-c3ccc(Cl)cc3)no1)C(c1ccc(Cl)cc1)C2 (stereo not drawn) ?
404

* * *

- Study target: serotonin transporter (Rattus norvegicus)
- Construct: from tissue
- Assay procedure: Inhibition of [3H]paroxetine radioligand binding at the serotonin transporter
- Experimental conditions: 5-HT IC50 for inhibition of radioligand binding, 5-HT=[3H] paroxetine
Where a name gives a salt, the structure may show the parent alone.
Reported property: pIC50
# log scale: pIC50 equals minus log10 of the concentration in mol/L

If you can, please state the reported pIC50 value of C=C(C)C1C(c2ccc(Cl)cc2)CC2CCC1N2C (stereo not drawn) .
7.24

So what's the measured pIC50 for this one? COC(=O)C1C(c2ccc(F)c(C)c2)CC2CCC1N2C (stereo not drawn)
7.12

# pIC50 lookup, item COC(=O)[C@@H]1C2CCC(C[C@@H]1c1ccc(Cl)c(C)c1)N2C (stereo partly drawn)
7.98

What value of measured pIC50 is listed for Cc1ccc([C@H]2C[C@@H]3CC[C@H]([C@H]2c2ncc(-c4ccccc4)o2)N3C)cc1 [RTI-4229-178, Tartrate] ?
5.77

Given Cc1noc([C@@H]2C3CCC(C[C@H]2c2ccccc2)N3C)n1 (stereo partly drawn) , state its recorded pIC50.
4.39

Bench note: what pIC50 did CC(C)C1C(c2ccc(Cl)cc2)CC2CCC1N2C (stereo not drawn) show?
7.42

Given CCC#Cc1ccc(C2CC3CCC(N3)C2C(=O)OC)cc1 (stereo not drawn) , state its recorded pIC50.
8.50

Please give the measured pIC50 for this molecule: COc1ccc(-c2cc([C@@H]3C4CCC(C[C@@H]3c3ccc(Cl)cc3)N4C)on2)cc1 (stereo partly drawn)
5.23

Others:
// query pIC50 value for entry CN1C2CCC1C(C(=O)N1CCCC1)C(c1ccc(Cl)cc1)C2 (stereo not drawn)
4.91

* * *

Catalogue of log10 IC50 readings, one per entry.
- Study target: norepinephrine transporter (UniProt Q9WTR4)
- Assay procedure: Inhibition of [3H]nisoxetine radioligand binding at the norepinephrine transporter
- Experimental conditions: read-out: IC50 NE [3H]-nisoxetine; Table II
Counter-ions that a name gives are not always drawn.
The base-10 logarithm of IC50, taken with IC50 in nM, is what appears here.

Tell me reported log10 IC50 for Cc1ccc([C@H]2C[C@@H]3CC[C@H]([C@H]2c2nnc(-c4ccccc4)s2)N3C)cc1 [RTI-4229-199, Hydrochloride] , tested with norepinephrine transporter (UniProt Q9WTR4).
4.39

Continuing:
Param readout= log10 IC50; system= norepinephrine transporter (UniProt Q9WTR4); entry= Cc1ccc([C@H]2C[C@@H]3CC[C@H]([C@H]2c2cc(-c4ccccc4)no2)N3C)cc1 [RTI-4229-176, Hydrochloride] ; returns value.
2.60

Hello, I am looking for reported log10 IC50 with norepinephrine transporter (UniProt Q9WTR4) for Cc1cc([C@H]2[C@@H](c3ccc(I)cc3)C[C@@H]3CC[C@H]2N3C)on1 [RTI-4229-180, Hydrochloride] . Could you help?
1.83

Param readout= log10 IC50; system= norepinephrine transporter (UniProt Q9WTR4); entry= Cc1ccc(C2CC3CCC(C2c2cc(C)no2)N3C)cc1.Cl (stereo not drawn) [RTI-4229-171, Hydrochloride] ; returns value.
2.40

Lab note: need log10 IC50 for CN1[C@H]2CC[C@@H]1[C@@H](c1nnn[nH]1)[C@@H](c1ccc(Cl)cc1)C2 on norepinephrine transporter (UniProt Q9WTR4), anyone have it?
4.24

Requested read-out log10 IC50, target or system norepinephrine transporter (UniProt Q9WTR4), entry CN1[C@H]2CC[C@@H]1[C@@H](c1cc(-c3ccccc3)no1)[C@@H](c1ccc(Cl)cc1)C2 [RTI-4229-177, Hydrochloride]
2.70
